Cited source: ChEMBL document CHEMBL6134821

Recorded remaining at 1 h by entry
- EXPERIMENT_DESCRIPTION: Microsomal stability in human liver microsomes assessed as compound remaining measured up to 60 mins in presence of NADPH by LC-MS/MS analysis
- Assay type: ADME, Microsome
- EXPERIMENTAL_CONDITIONS: read-out: Stability
State just the number; it will be interpreted in %.

Below, 3 compounds whose answers are already recorded.
COMPOUND	ASSAY_READOUT	MEASURED_RESULT
O=C1CCC(c2ccc(N3CCC(CCN4CCC(CC(=O)N[C@H]5CC[C@H](Nc6ncnc7[nH]cc(C(=O)c8ccc(Oc9ccccc9)cc8)c67)C5)CC4)CC3)cc2)C(=O)N1 (some centres undefined)	remaining at 1 h	92.2
O=C1CCC(c2ccc(N3CCC(CCN4CCC(CC(=O)N[C@H]5CC[C@H](Nc6ncnc7[nH]cc(C(=O)c8ccc(Oc9ccccc9)cc8)c67)C5)CC4)CC3)nc2)C(=O)N1 (some centres undefined)	remaining at 1 h	106
O=C1CCC(c2ccc(N3CCC(CN4CCC(CC(=O)N[C@H]5CC[C@H](Nc6ncnc7[nH]cc(C(=O)c8ccc(Oc9ccccc9)cc8)c67)C5)CC4)CC3)cc2)C(=O)N1 (some centres undefined)	remaining at 1 h	55.6

Now let's try a different one.
Record O=C1CCC(c2ccc(N3CCC(CN4CCC(CC(=O)N[C@H]5CC[C@H](Nc6ncnc7[nH]cc(C(=O)c8ccc(Oc9ccccc9)cc8)c67)C5)CC4)CC3)nc2)C(=O)N1 (some centres undefined) , field remaining at 1 h: 53.9
